Source: patent US5739291A

- Experimental system: GluR1 (Rattus norvegicus)
- Construct: expressed in transfected cells; host or cells: Xenopus oocytes injected with GluR1 in vitro sense RNA
- Sequence (P19490 19-907 S67T/A248R/S789T): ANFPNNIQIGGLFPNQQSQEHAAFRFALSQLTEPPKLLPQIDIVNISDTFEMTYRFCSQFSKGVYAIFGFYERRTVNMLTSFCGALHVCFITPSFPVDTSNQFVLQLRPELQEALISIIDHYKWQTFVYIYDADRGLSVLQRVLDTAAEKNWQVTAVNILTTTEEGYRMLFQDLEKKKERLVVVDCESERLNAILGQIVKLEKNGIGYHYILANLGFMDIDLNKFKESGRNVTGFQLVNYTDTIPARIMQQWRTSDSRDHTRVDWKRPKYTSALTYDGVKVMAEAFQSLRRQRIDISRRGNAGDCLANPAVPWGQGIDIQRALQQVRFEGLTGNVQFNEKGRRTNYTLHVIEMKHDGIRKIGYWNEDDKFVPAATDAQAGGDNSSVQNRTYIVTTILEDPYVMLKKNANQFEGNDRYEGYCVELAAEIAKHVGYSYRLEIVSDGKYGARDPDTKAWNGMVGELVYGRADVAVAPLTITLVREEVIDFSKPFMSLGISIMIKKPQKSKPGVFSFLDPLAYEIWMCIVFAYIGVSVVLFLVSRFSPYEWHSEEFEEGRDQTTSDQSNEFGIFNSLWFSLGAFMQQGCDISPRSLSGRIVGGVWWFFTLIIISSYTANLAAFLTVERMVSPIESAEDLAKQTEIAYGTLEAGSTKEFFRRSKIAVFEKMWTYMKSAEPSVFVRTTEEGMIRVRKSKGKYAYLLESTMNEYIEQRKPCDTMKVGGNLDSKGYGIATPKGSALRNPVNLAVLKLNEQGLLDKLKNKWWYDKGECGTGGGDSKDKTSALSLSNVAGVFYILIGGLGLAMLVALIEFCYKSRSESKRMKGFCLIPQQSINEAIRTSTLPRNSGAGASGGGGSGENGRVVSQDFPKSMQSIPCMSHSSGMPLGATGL
- Method summary: Voltage-clamp recording in Xenopus oocytes injected with GluR1 in vitro RNA
- Format: cell-based
- Assay context: xenopus oocytes, 1000 µM
Binarize Compound Plus Kainate (%): % of the response seen with 30 μM kainate alone at 30%; below is 1 (yes), at or above is 0 (no).

>>> classification("O=C(O)c1cc(=O)c2ccccc2[nH]1 [Kynurenic acid]")
"1 (yes)"
>>> classification("O=C(O)C1CN(CCCP(=O)(O)O)CCN1 (centres unmarked) [CPP]")
"0 (no)"
>>> classification("CCOC(=O)CC[C@H](N)C(=O)OCC [GDEE, glutamate diethylester]")
"0 (no)"

Moving on to the next molecule.
Exam item: hey, is Compound Plus Kainate (%): % of the response seen with 30 μM kainate alone for O=C(O)[C@H]1CCCN[C@H]1C(=O)O (relative stereo) [PDA, 2,3cis-piperidine dicarboxylic acid] lower than 30% or not?
Marked response: 0 (no)
